Test system: NCI-H719 tumor spheroids, viability
Experiment: Anticancer human tumor NCI-H719 cell line growth inhibition;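 further: spheroids exposed to compounds for seven days; percent viability relative to DMSO vehicle control as 100%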
Conditions: second compound 30 pM; first compound 1 µM; hits give low values; spheroids with HUVEC and MSC
readout_label: viability, T/C (%)
Quick note: give the figure in %, leave out the unit.

>  <compound>
CC1COCCN1c1cc(-c2ccnn2C)c2ccnc(-c3ccn[nH]3)c2n1 (stereo unspecified) + COc1cc2c(cc1O)CCNC21CSC2c3c(OC(C)=O)c(C)c4c(c3C(COC1=O)N1C(O)C3Cc5cc(C)c(OC)c(O)c5C(C21)N3C)OCO4

>  <viability, T/C, %>
9.83

$$$$
>  <compound>
CC(C)n1c(=O)n(C)c2cnc3cc(F)c(-c4ccc(OCCCN5CCCCC5)nc4)cc3c21 + COc1cc2c(cc1O)CCNC21CSC2c3c(OC(C)=O)c(C)c4c(c3C(COC1=O)N1C(O)C3Cc5cc(C)c(OC)c(O)c5C(C21)N3C)OCO4

>  <viability, T/C, %>
71.2

$$$$
>  <compound>
Cc1cc(C)c(CNC(=O)c2cc(-c3ccc(CN4CCOCC4)cc3)cc3c2cnn3C2CCCC2)c(=O)[nH]1 + COc1cc2c(cc1O)CCNC21CSC2c3c(OC(C)=O)c(C)c4c(c3C(COC1=O)N1C(O)C3Cc5cc(C)c(OC)c(O)c5C(C21)N3C)OCO4

>  <viability, T/C, %>
78.7

$$$$

What viability, T/C value was documented for this compound, COc1ccc([C@@H](O)c2cc(-c3ncnc4cc(N5CCOCC5)ccc34)c(F)cc2Cl)nn1 + COc1cc2c(cc1O)CCNC21CSC2c3c(OC(C)=O)c(C)c4c(c3C(COC1=O)N1C(O)C3Cc5cc(C)c(OC)c(O)c5C(C21)N3C)OCO4 ? 52.4

Entry [2H]c1nc(C)nc([2H])c1-c1cc(NC[C@@H](C)c2cccc3c(C(=O)NC)ccnc23)ncn1 + COc1cc2c(cc1O)CCNC21CSC2c3c(OC(C)=O)c(C)c4c(c3C(COC1=O)N1C(O)C3Cc5cc(C)c(OC)c(O)c5C(C21)N3C)OCO4 please 66.6

Entry COc1cc(C)[nH]c(=O)c1CN1CCc2c(Cl)cc(C(OC)C3COC3)c(Cl)c2C1=O (stereo unspecified) + COc1cc2c(cc1O)CCNC21CSC2c3c(OC(C)=O)c(C)c4c(c3C(COC1=O)N1C(O)C3Cc5cc(C)c(OC)c(O)c5C(C21)N3C)OCO4 please 95.7
